- System: Staphylococcus aureus
- Test description: Minimum inhibitory concentration against Staphylococcus aureus
- Format: functional
Residues, ends and D or L forms follow the SMILES beside them.
Observed property: MIC
Quote the value and follow it with the unit of measurement.

Study these solved cases before continuing.
Lab entry: Staphylococcus aureus assay, compound NC(N)=NCCC[C@H](NC(=O)[C@H](Cc1c[nH]c2ccccc12)NC(=O)[C@@H](N)CCCN=C(N)N)C(=O)N[C@@H](Cc1c[nH]c2ccccc12)C(=O)OCc1ccccc1 , MIC = 2.5 µg/mL

Lab entry: Staphylococcus aureus assay, compound COC(=O)[C@H](CCCN=C(N)N)NC(=O)[C@H](Cc1c[nH]c2ccccc12)NC(=O)[C@H](Cc1c[nH]c2ccccc12)NC(=O)[C@@H](N)CCCN=C(N)N (H-RWWR-OMe) , MIC = 75 µg/mL

Below: the item to evaluate.
Lab entry: Staphylococcus aureus assay, compound N=C(N)NCCC[C@H](NC(=O)Cc1c[nH]c2ccccc12)C(=O)N[C@@H](Cc1c[nH]c2ccccc12)C(=O)OCc1ccccc1 , MIC = 20 µg/mL

----------
- System: Staphylococcus aureus
- Test description: Minimum inhibitory concentration against Staphylococcus aureus
- Assay type: functional
Non-standard residues stand in square brackets, D forms with d. Residues, ends and D or L forms follow the SMILES beside them. *: point of attachment. OBn = c1ccc(CO*)cc1
Observed property: MIC

Study these solved cases before continuing.
For this compound ( NCCCC[C@@H](N)C(=O)N[C@@H](Cc1c[nH]c2ccccc12)C(=O)OCc1ccccc1 (H-[dK]-Trp-OBn) ), measured MIC is 75 µg/mL

For this compound ( NC(=O)[C@H](CCCN=C(N)N)NC(=O)[C@H](Cc1c[nH]c2ccccc12)NC(=O)[C@H](Cc1c[nH]c2ccccc12)NC(=O)[C@@H](N)CCCN=C(N)N (H-RWWR-NH2) ), measured MIC is 100 µg/mL

For this compound ( NC(N)=NCCC[C@H](N)C(=O)N[C@@H](Cc1c[nH]c2ccccc12)C(=O)OCc1ccccc1 ), measured MIC is 15 µg/mL

For this compound ( NC(N)=NCCC[C@@H](N)C(=O)N[C@@H](Cc1c[nH]c2ccccc12)C(=O)OCc1ccccc1 ), measured MIC is 25 µg/mL

For this compound ( COC(=O)[C@H](CCCN=C(N)N)NC(=O)[C@H](Cc1c[nH]c2ccccc12)NC(=O)C1CCCCC1 ), measured MIC is > 200 µg/mL

More entries:
For this compound ( NC(N)=NCCC[C@H](N)C(=O)N[C@@H](Cc1ccccc1)C(=O)OCc1ccccc1 ), measured MIC is 200 µg/mL

For this compound ( NC(N)=NCCC[C@H](NC(=O)[C@@H](N)Cc1ccccc1)C(=O)OCc1ccccc1 (H-Phe-Arg-OBn) ), measured MIC is > 200 µg/mL

For this compound ( NC(N)=NCCC[C@H](N)C(=O)N[C@@H](Cc1c[nH]c2ccccc12)C(=O)N[C@H](CCCN=C(N)N)C(=O)N[C@H](Cc1c[nH]c2ccccc12)C(=O)OCc1ccccc1 ), measured MIC is 5 µg/mL

----------
- Test system: Staphylococcus aureus
- Test description: Minimum inhibitory concentration against Staphylococcus aureus
- Type: functional
Non-standard residues stand in square brackets, D forms with d. Residues, ends and D or L forms follow the SMILES beside them. *: point of attachment. OBn = c1ccc(CO*)cc1
Observed property: MIC (µg/mL)
Your answer is read as µg/mL, so omit the unit and give the number.

For this compound ( NC(N)=NCCC[C@H](N)C(=O)N[C@H](Cc1c[nH]c2ccccc12)C(=O)OCc1ccccc1 ), measured MIC is 50

For this compound ( NCCCC[C@H](N)C(=O)N[C@H](Cc1c[nH]c2ccccc12)C(=O)OCc1ccccc1 (H-Lys-[dW]-OBn) ), measured MIC is 75

For this compound ( NCCCC[C@H](N)C(=O)N[C@@H](Cc1c[nH]c2ccccc12)C(=O)OCc1ccccc1 (H-Lys-Trp-OBn) ), measured MIC is 50

For this compound ( N=C(N)NCCC[C@H](NC(=O)C1CCCCC1)C(=O)N[C@@H](Cc1c[nH]c2ccccc12)C(=O)OCc1ccccc1 ), measured MIC is 25

For this compound ( NC(=O)[C@H](Cc1c[nH]c2ccccc12)NC(=O)[C@H](CCCN=C(N)N)NC(=O)[C@H](CCCN=C(N)N)NC(=O)[C@@H](N)Cc1c[nH]c2ccccc12 (H-WRRW-NH2) ), measured MIC is 200

For this compound ( NC(N)=NCCC[C@H](NC(=O)[C@H](N)Cc1c[nH]c2ccccc12)C(=O)N[C@@H](Cc1c[nH]c2ccccc12)C(=O)OCc1ccccc1 ), measured MIC is 20

Below: the item to evaluate.
For this compound ( NC(N)=NCCC[C@@H](NC(=O)[C@H](N)Cc1c[nH]c2ccccc12)C(=O)N[C@H](Cc1c[nH]c2ccccc12)C(=O)OCc1ccccc1 ), measured MIC is 5

----------
- Test system: Staphylococcus aureus
- Test description: Minimum inhibitory concentration against Staphylococcus aureus
- Type: functional
Residues, ends and D or L forms follow the SMILES beside them.
Reported MIC values are given for each entry in this list.
Your answer is read as µg/mL, so omit the unit and give the number.

Lab entry: Staphylococcus aureus assay, molecule NC(=O)[C@H](CCCN=C(N)N)NC(=O)[C@H](Cc1c[nH]c2ccccc12)NC(=O)[C@H](CCCN=C(N)N)NC(=O)[C@@H](N)Cc1c[nH]c2ccccc12 (H-WRWR-NH2) , MIC = 200

Below: the item to evaluate.
Lab entry: Staphylococcus aureus assay, molecule NC(N)=NCCC[C@@H](N)C(=O)N[C@H](Cc1c[nH]c2ccccc12)C(=O)OCc1ccccc1 , MIC = 50

----------
- System: Staphylococcus aureus
- Test description: Minimum inhibitory concentration against Staphylococcus aureus
- Assay type: functional
Residues, ends and D or L forms follow the SMILES beside them. *: point of attachment. OBn = c1ccc(CO*)cc1
Reported MIC values are given for each entry in this list.

Study these solved cases before continuing.
For this compound ( COC(=O)[C@H](CCCN=C(N)N)NC(=O)[C@@H](N)Cc1c[nH]c2ccccc12 (H-Trp-Arg-OMe) ), measured MIC is > 200 µg/mL

For this compound ( COC(=O)[C@H](CCCN=C(N)N)NC(=O)[C@H](Cc1c[nH]c2ccccc12)NC(=O)[C@H](CCCN=C(N)N)NC(=O)[C@@H](N)Cc1c[nH]c2ccccc12 (H-WRWR-OMe) ), measured MIC is > 200 µg/mL

For this compound ( NC(=O)[C@H](Cc1c[nH]c2ccccc12)NC(=O)[C@H](CCCN=C(N)N)NC(=O)[C@@H](N)Cc1c[nH]c2ccccc12 (H-Trp-Arg-Trp-NH2) ), measured MIC is 100 µg/mL

For this compound ( NC(N)=NCCC[C@H](NC(=O)[C@@H](N)Cc1c[nH]c2ccccc12)C(=O)N[C@@H](Cc1c[nH]c2ccccc12)C(=O)OCc1ccccc1 ), measured MIC is 5 µg/mL

For this compound ( COC(=O)[C@H](CCCN=C(N)N)NC(=O)[C@H](Cc1c[nH]c2ccccc12)NC(=O)Cc1c[nH]c2ccccc12 ), measured MIC is 200 µg/mL

More entries:
For this compound ( NC(=O)[C@H](CCCN=C(N)N)NC(=O)[C@H](Cc1c[nH]c2ccccc12)NC(=O)[C@@H](N)CCCN=C(N)N (H-Arg-Trp-Arg-NH2) ), measured MIC is > 200 µg/mL

For this compound ( NC(N)=NCCC[C@H](NC(=O)[C@@H](N)Cc1c[nH]c2ccccc12)C(=O)OCc1ccccc1 (H-Trp-Arg-OBn) ), measured MIC is 200 µg/mL

Attribution: ChEMBL document CHEMBL1136770
